Reported pIC50 by item:
biological target: NLRP3 (Homo sapiens, UniProt Q96P20); construct: host or cells: THP-1 cells, PMA-differentiated, LPS-primed, nigericin-stimulated; test: IL-1β assay (ELISA of THP-1 culture supernatant); format: cell-based; details: PMA-differentiated THP-1, LPS 50 ng/ml 4 h, compound 30 min, nigericin 15 μM 45 min; Human IL-1β ELISA
Sequence (Q96P20 whole entry): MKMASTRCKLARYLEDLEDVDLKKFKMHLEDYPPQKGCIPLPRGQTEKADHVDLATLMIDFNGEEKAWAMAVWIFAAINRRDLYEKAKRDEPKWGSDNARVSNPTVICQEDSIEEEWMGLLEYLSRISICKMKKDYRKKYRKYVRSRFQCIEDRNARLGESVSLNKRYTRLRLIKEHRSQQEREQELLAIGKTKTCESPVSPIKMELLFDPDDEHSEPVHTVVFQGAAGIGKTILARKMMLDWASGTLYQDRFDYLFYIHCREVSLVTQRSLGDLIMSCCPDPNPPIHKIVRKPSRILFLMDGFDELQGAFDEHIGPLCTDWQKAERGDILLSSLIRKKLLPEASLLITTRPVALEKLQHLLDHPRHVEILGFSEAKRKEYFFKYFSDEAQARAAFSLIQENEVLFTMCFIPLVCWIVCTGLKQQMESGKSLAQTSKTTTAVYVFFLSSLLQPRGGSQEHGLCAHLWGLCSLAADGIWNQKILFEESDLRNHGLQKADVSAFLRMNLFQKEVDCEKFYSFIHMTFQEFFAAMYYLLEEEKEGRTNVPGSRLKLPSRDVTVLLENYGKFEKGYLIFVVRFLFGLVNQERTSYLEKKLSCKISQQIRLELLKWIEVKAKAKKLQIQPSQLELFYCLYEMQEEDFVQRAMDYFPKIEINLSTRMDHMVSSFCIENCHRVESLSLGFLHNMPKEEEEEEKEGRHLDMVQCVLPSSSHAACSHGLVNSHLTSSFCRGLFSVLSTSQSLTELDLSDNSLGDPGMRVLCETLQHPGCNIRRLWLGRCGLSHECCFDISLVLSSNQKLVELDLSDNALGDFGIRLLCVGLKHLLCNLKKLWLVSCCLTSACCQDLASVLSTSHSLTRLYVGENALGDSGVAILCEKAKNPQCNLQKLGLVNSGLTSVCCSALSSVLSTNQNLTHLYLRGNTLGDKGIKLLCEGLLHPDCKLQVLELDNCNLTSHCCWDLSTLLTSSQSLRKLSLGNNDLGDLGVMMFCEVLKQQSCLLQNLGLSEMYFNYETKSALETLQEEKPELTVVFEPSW
pIC50: −log10 of the molar value.

COc1nc(N2CCOCC2)nc2nn(-c3c(C)cc(C4CC4)cc3C)nc12 | < 5.00
CCN(CC)c1nc2nn(-c3c(C)cc(Br)cc3C)nc2c(=O)[nH]1 | > 8.21
Cc1cc(C2CC2)cc(C)c1-n1nc2nc(N3CCCC3)[nH]c(=O)c2n1 | > 8.30

// pIC50 value for Cc1cc(Br)cc(C)c1-n1nc2nc(N3CCCC3)[nH]c(=S)c2n1 : > 6.30

What the record says about O=c1[nH]c(N2CCCC2)nc2nn(-c3c(F)cc(Br)cc3Cl)nc12 : pIC50 is > 7.82

Noted for CCN1CCN(c2nc3nn(-c4c(C)cc(C5CC5)cc4F)nc3c(=O)[nH]2)CC1 : its pIC50 reads < 7.00

Looking up O=c1[nH]c(N2CCCC2)nc2nn(-c3c(Cl)cc(Br)cc3Cl)nc12 , I see its pIC50 listed as > 7.82

For reference, reported pIC50 for Cc1cc(C2CC2)cc(C)c1-n1nc2nc(N3CCCC3)[nH]c(=S)c2n1 stands at > 7.00

# compound O=c1[nH]c(N2CCCC2)nc2nn(-c3c(F)cc(Br)cc3F)nc12 ; its pIC50 = > 7.70
